From: ChEMBL document CHEMBL1649118

# protocol notes: Plasma protein binding in burn patient at 1g, iv administered as 5 mins infusion
# Type: ADME, organism-based
# condition description: human, read-out: PPB (converted)
property label: fraction unbound at 5 min
Just the number, please, no unit attached.

Prompt: Provide one value: measured fraction unbound at 5 min of CC(=O)OCC1=C(C(=O)O)N2C(=O)[C@@H](NC(=O)Cc3cccs3)[C@H]2SC1
Completion: 0.42

----------
# protocol notes: Drug level in subcutaneous interstitial fluid at nonburnt site of patient at 1 g, iv administered as 5 mins infusion measured after 240 min
# Type: ADME, organism-based
# condition description: human, read-out: Drug uptake
property label: concentration at 4 h (ng/mL)
Answer in ng/mL, number only, no unit symbol.

Prompt: Provide one value: measured concentration at 4 h of CC(=O)OCC1=C(C(=O)O)N2C(=O)[C@@H](NC(=O)Cc3cccs3)[C@H]2SC1
Completion: 3060

----------
# protocol notes: Drug level in subcutaneous interstitial fluid at burnt site of patient at 1 g, iv administered as 5 mins infusion measured after 240 min
# Format: ADME, organism-based
# condition description: human, read-out: Drug uptake
property label: concentration at 4 h
Dear colleague, please send the value followed by its unit.

Prompt: Provide one value: measured concentration at 4 h of CC(=O)OCC1=C(C(=O)O)N2C(=O)[C@@H](NC(=O)Cc3cccs3)[C@H]2SC1
Completion: 2840 ng/mL
